Recorded values, source patent US20240158446A1.

# Target or test system: GDP-bound KRAS wild-type protein (Homo sapiens, UniProt P01116)
# Sequence (P01116 whole entry): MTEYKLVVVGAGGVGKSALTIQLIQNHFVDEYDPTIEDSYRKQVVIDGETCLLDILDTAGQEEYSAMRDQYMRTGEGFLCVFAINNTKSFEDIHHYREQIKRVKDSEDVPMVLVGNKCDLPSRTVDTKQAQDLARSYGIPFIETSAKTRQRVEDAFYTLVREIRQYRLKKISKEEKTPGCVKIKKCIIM
# Assay procedure: Binding to KRAS by surface plasmon resonance (SPR), Single Cycle Kinetics
# Experimental conditions: SPR, Single Cycle Kinetics, GDP-bound KRAS wild-type protein; read-out: KRAS KD
Value type: Kd (nM)
Express your answer in nM, writing the number without its unit.

Line notation: CCC[C@H]1C(=O)N[C@@H](C2CCCC2)C(=O)N(C)CC(=O)N(C)[C@H]2C/C=C\CCN(C2=O)[C@@H](Cc2ccc(C)cc2)C(=O)N(C)CC(=O)N[C@@H](CCc2ccc(C(F)(F)F)c(Cl)c2)C(=O)N2C[C@H](OCC)C[C@H]2C(=O)NC2(CC(C)(C)C2)C(=O)N(C)[C@@H](CC(C)(C)C)C(=O)N(C)[C@H](C(=O)N(C)C)CC(=O)N1C
Unit spec: nM
Kd: 0.24
//
Line notation: CCC[C@H]1C(=O)N[C@@H]([C@@H](C)CC)C(=O)N(C)CC(=O)N(C)[C@H]2C/C=C\CCN(C2=O)[C@@H](Cc2ccc(C(F)(F)F)cc2)C(=O)N(C)CC(=O)N[C@@H](CCc2cc(F)c(C(F)(F)F)c(F)c2)C(=O)N2C[C@@H](C)C[C@H]2C(=O)NC2(CC(C)(C)C2)C(=O)N(C)[C@@H](C2CCCC2)C(=O)N(C)[C@H](C(=O)N(C)C)CC(=O)N1C
Unit spec: nM
Kd: 0.097

Now for another entry.
Q: If you can, please state the reported Kd value of `CC[C@H](C)[C@@H]1NC(=O)[C@@H]2CCCc3ccc(cc3)C[C@@H](C(=O)N(C)CC(=O)N[C@@H](CCc3ccc(C(F)(F)F)c(OC)c3)C(=O)N3C[C@H](OC4CCCC4)C[C@H]3C(=O)NC3(CC(C)(C)C3)C(=O)N(C)[C@@H](C3CCCC3)C(=O)N(C)[C@H](C(=O)N(C)CC)CC(=O)N2C)N2CC/C=C\C[C@@H](C2=O)N(C)C(=O)CN(C)C1=O` .
Result: 0.2
